Each entry below carries its recorded Activation (%).
- assay system: MRGPRX4 (Homo sapiens, UniProt Q96LA9)
- Sequence (Q96LA9 whole entry): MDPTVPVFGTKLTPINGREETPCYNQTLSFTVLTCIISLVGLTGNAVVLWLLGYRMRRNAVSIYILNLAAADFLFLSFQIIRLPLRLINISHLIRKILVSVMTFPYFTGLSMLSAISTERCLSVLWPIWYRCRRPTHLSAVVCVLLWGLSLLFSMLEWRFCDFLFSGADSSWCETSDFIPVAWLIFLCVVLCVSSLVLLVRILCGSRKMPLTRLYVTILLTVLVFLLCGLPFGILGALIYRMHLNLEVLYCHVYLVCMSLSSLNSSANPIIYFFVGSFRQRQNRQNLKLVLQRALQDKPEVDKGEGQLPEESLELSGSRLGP
- protocol notes: MRGPRX4 activation, Fluo-8 Ca2+ FLIPR assay in HEK293T cells stably expressing MRGPRX4
- Type: cell-based
- reported conditions: second E3-8-1, 4.6 nM, n = 1
Write the number in % without appending the unit.

CC[C@H]1[C@@H](O)[C@@H]2[C@H](CC[C@]3(C)[C@@H]([C@H](C)COC(=O)NS(=O)(=O)c4ccc(C(C)(C)CF)cc4)CC[C@@H]23)[C@@]2(C)CCCC[C@@H]12 [18-1]; 3.17

What measured Activation (%) is associated with CC[C@H]1[C@@H](O)[C@@H]2[C@H](CC[C@]3(C)[C@@H]([C@H](C)COC(=O)NS(=O)(=O)c4ccc(N5CCCCC5)nc4)CC[C@@H]23)[C@@]2(C)CCCC[C@@H]12 [18-3] on MRGPRX4 (Homo sapiens, UniProt Q96LA9)? 3.17

Same again, this time with CC[C@H]1[C@@H](O)[C@@H]2[C@H](CC[C@]3(C)[C@@H]([C@H](C)COC(=O)NS(=O)(=O)c4ccc5c(c4)CCC(C)(C)O5)CC[C@@H]23)[C@@]2(C)CCCC[C@@H]12 [18-2] 2.86

Same again, this time with CC[C@H]1[C@@H](O)[C@@H]2[C@H](CC[C@]3(C)[C@@H]([C@H](C)CNC(=O)NS(=O)(=O)c4ccc(N5CCCCC5)nc4)CC[C@@H]23)[C@@]2(C)CCCC[C@@H]12 [20-3] 3.48
